TESTED_ON: T1, USP38, Q8NB14
T1 chain: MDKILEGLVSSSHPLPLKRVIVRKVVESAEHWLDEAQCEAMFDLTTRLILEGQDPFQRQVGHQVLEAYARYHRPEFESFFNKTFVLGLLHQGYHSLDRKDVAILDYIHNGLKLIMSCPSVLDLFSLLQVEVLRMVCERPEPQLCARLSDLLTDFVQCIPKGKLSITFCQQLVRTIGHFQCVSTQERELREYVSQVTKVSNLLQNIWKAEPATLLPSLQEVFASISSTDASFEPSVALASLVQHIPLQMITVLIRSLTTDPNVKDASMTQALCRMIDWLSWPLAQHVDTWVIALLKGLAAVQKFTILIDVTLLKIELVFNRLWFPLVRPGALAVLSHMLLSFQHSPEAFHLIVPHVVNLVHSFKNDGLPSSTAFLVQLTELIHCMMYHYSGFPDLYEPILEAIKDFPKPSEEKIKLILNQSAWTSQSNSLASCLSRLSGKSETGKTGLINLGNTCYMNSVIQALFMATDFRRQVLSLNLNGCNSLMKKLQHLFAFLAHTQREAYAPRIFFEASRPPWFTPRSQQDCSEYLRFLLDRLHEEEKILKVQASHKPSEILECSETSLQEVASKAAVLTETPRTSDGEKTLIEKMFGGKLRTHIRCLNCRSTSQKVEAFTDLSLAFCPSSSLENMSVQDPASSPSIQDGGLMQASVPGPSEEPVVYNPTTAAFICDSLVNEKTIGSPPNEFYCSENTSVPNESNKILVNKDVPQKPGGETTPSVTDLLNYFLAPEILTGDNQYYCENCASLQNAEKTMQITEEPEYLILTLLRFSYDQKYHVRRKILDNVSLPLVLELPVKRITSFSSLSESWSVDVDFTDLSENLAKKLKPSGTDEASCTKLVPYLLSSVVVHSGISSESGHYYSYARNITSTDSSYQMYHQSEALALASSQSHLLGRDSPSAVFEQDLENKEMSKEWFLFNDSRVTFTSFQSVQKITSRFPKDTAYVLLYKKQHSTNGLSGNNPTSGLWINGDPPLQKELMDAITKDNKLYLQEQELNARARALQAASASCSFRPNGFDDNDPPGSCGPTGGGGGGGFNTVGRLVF
TEST_NAME: median log2 fold change of GCK-ALFA target abundance (FLAG IP / Myc IP barcode read proportion) (log2 ratio); each designed protein is fused to an ALFA-tag nanobody in HEK293 cells to bring the named protein to FLAG-tagged glucokinase (GCK); Myc marks an untargeted standard; higher = target protein stabilised (more abundant)
MEASUREMENT_PARAMETERS: target protein: 3xFLAG-MCP-GCK-ALFA reporter; HEK293 landing pad (RPLP)
PROPERTY_LABEL: median log2 fold change
Answer field: number only, no words.

Example cases with answers are listed next.
{"columns": ["BINDER", "RESULT_NUMBER"],
 "data": [
  ["usp_38_diff_out_24_27_495 (protein) EEEKKKLLEKLIEKFEKILELAKKAVGADLATRIKLSSEIDELLEEARKLAKELGIPEVEKLVTQVAIQASIVLSGSEEMEEAIKEIEKIIEELKKLLKE", 0.368],
  ["usp_38_diff_out_18_14_272 (protein) DEELSEALLSNLKSLKEDVKEYTKRVLRLLEANKDDPERVKRIYERAERNLEGVEKFAEEVLKEAKERGDEEVQKAAKELKEEAKKAREEIKKKVKEVLA", -0.188],
  ["usp_38_diff_out_18_14_284 (protein) SAELAAAEKAALEILKTDVKKDTERVIRLLKKAKDDPERVKRIYERAKRNLEGVETYAKEVLERAKKAGDKETKAAAEELLKEIEEAKKKIEEAYKEVMA", 0.0553],
  ["usp_38_diff_out_18_14_328 (protein) SAELREALLSNLETLTKEVKEVTERTLKIVDKLKGDPEAARSLLDTRIQALEGVIKYAEEVAKEAKAAGDKELEAAAEKLKKEAEKAKKELEEKKKALEA", -0.102],
  ["usp_38_diff_out_17_125_218 (protein) SDEELKKEIERLLEEAERLLEEAEKALEEGAPFEEIRKLLDEAADALGQAAVKLRELREKSEDPAQAAKFIKEATERANELIDRYTELATRAFLREAEAA", 0.0443]
]}

Lookup: Reported median log2 fold change for usp_38_diff_out_15_85_155 (protein) EAEELKREIEREIEEARRLLEEARALLADPAAPLAAIREVLDRAAEALGRAEALARELRRRFPEYREFVKKALEELDRLTDELERLAREAFEREADALAA : what is it?
Found: 0.127

Lookup: Reported median log2 fold change for usp_38_diff_out_17_26_237 (protein) SAEEKRKEAEKLLEELEKYVKETLEKIDKLIEEGKFEEAKKLLDELVTETTKRFTEILELAADDPELMDKALAKYDELSGQIAARYRRLEEARREAEAKA : what is it?
Found: 0.259
